- target: von Hippel-Lindau disease tumor suppressor/Protein arginine N-methyltransferase 5 (Homo sapiens, UniProt O14744+P40337)
- Sequence (O14744 whole entry, looked up): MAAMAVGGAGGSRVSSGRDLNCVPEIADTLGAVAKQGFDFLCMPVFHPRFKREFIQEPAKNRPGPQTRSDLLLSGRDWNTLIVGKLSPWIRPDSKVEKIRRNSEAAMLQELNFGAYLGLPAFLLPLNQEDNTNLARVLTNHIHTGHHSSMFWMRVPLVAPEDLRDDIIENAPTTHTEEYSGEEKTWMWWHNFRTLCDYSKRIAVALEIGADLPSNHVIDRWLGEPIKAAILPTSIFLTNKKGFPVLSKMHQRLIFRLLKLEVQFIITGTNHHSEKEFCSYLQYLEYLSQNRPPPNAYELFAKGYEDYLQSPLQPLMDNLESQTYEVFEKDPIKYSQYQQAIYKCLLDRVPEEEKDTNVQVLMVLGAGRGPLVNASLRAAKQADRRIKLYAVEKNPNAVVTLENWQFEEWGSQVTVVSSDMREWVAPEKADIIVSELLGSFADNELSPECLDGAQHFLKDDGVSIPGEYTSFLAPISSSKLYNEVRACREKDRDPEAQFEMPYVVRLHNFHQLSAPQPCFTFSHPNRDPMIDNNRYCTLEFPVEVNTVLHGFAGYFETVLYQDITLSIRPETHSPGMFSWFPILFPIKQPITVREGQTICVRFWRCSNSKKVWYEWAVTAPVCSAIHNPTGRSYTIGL
- Sequence (P40337 whole entry, looked up): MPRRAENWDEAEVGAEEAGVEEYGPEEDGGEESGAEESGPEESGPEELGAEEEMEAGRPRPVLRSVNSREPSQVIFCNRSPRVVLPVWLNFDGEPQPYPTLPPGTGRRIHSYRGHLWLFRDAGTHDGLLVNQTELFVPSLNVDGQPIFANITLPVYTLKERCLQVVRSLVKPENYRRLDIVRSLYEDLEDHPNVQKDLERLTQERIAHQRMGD
- protocol summary: PROTAC activity at […]/VHL in human MDA-MB-468 cells assessed as relative protein level at 0.5 uM measured after 24 hrs by Western blot analysis
- Type: cell-based
The source made the active and inactive calls. No cut-off for these calls is given here.
Choose one outcome from this list and give only that: true (1) for active, false (0) for inactive

Consider the following illustrative entries.
Task item: Returns: the outcome recorded for `Cc1ncsc1-c1ccc(CNC(=O)[C@@H]2C[C@@H](O)CN2C(=O)[C@@H](NC(=O)C2(F)CC2)C(C)(C)C)c(OCC(=O)NCCC(=O)N2CCC(Nc3cc(C(=O)NC[C@H](O)CN4CCc5ccccc5C4)ncn3)CC2)c1` in this assay.
Reply: true (1)

Task item: Returns: the outcome recorded for `Cc1ncsc1-c1ccc([C@H](C)NC(=O)[C@@H]2C[C@@H](O)CN2C(=O)[C@@H](NC(=O)COCCOCCOCCOCCOCC(=O)N2CCC(Nc3cc(C(=O)NC[C@H](O)CN4CCc5ccccc5C4)ncn3)CC2)C(C)(C)C)cc1` in this assay.
Reply: true (1)

Task item: Returns: the outcome recorded for `Cc1ncsc1-c1ccc([C@H](CC(=O)N2CCC(Nc3cc(C(=O)NC[C@H](O)CN4CCc5ccccc5C4)ncn3)CC2)NC(=O)[C@@H]2C[C@@H](O)CN2C(=O)[C@@H](NC(=O)C2(F)CC2)C(C)(C)C)cc1` in this assay.
Reply: true (1)

Next:
Task item: Returns: the outcome recorded for `Cc1ncsc1-c1ccc([C@H](C)NC(=O)[C@@H]2C[C@@H](O)CN2C(=O)[C@@H](NC(=O)COCCOCCOCCOCCOCC(=O)N2CC(Nc3cc(C(=O)NC[C@H](O)CN4CCc5ccccc5C4)ccn3)C2)C(C)(C)C)cc1` in this assay.
Reply: false (0)

Task item: Returns: the outcome recorded for `Cc1ncsc1-c1ccc([C@H](CC(=O)NCC(=O)N2CCC(Nc3cc(C(=O)NC[C@H](O)CN4CCc5ccccc5C4)ncn3)CC2)NC(=O)[C@@H]2C[C@@H](O)CN2C(=O)[C@@H](NC(=O)C2(F)CC2)C(C)(C)C)cc1` in this assay.
Reply: true (1)

Task item: Returns: the outcome recorded for `Cc1ncsc1-c1ccc([C@H](CC(=O)NCCOCCC(=O)N2CCC(Nc3cc(C(=O)NC[C@H](O)CN4CCc5ccccc5C4)ncn3)CC2)NC(=O)[C@@H]2C[C@@H](O)CN2C(=O)[C@@H](NC(=O)C2(F)CC2)C(C)(C)C)cc1` in this assay.
Reply: false (0)

Task item: Returns: the outcome recorded for `Cc1ncsc1-c1ccc(CNC(=O)[C@@H]2C[C@@H](O)CN2C(=O)[C@@H](NC(=O)C2(F)CC2)C(C)(C)C)c(OCC(=O)NCCOCCOCCOCCOCCC(=O)N2CCC(Nc3cc(C(=O)NC[C@H](O)CN4CCc5ccccc5C4)ncn3)CC2)c1` in this assay.
Reply: false (0)

Task item: Returns: the outcome recorded for `Cc1ncsc1-c1ccc([C@H](CC(=O)NCCCCCC(=O)N2CCC(Nc3cc(C(=O)NC[C@H](O)CN4CCc5ccccc5C4)ncn3)CC2)NC(=O)[C@@H]2C[C@@H](O)CN2C(=O)[C@@H](NC(=O)C2(F)CC2)C(C)(C)C)cc1` in this assay.
Reply: true (1)

Task item: Returns: the outcome recorded for `Cc1ncsc1-c1ccc([C@H](CC(=O)NCCOCCOCCOCCOCCC(=O)N2CCC(Nc3cc(C(=O)NC[C@H](O)CN4CCc5ccccc5C4)ncn3)CC2)NC(=O)[C@@H]2C[C@@H](O)CN2C(=O)[C@@H](NC(=O)C2(F)CC2)C(C)(C)C)cc1` in this assay.
Reply: true (1)

Data provenance: ChEMBL document CHEMBL6109159
